- Test system: Escherichia coli
- protocol: Antibacterial activity against Escherichia coli ATCC 25922 at 3.91 uM to 62.50 uM incubated in dark for 30 mins followed by exposure to light fluences at 650 nm and 6 J/cm2 and then incubated overnight measured after 24 hrs
- Format: functional, organism-based
Calls of active or inactive are those of the source. The rule behind the calls is not given here.
Hello, when you answer, please use one of the following outcomes: active, inactive

Please indicate how the test categorized `NCCCC[C@H](N)C(=O)Nc1ccc(-c2c3nc(c(-c4ccc(NC(=O)[C@@H](N)CCCCN)cc4)c4ccc([nH]4)c(-c4ccc(NC(=O)[C@@H](N)CCCCN)cc4)c4nc(c(-c5ccc(NC(=O)[C@@H](N)CCCCN)cc5)c5ccc2[nH]5)C=C4)C=C3)cc1` .
active

Please indicate how the test categorized `N=C(N)NCCC[C@H](N)C(=O)Nc1ccc(-c2c3nc(c(-c4ccc(N)cc4)c4ccc([nH]4)c(-c4ccc(N)cc4)c4nc(c(-c5ccc(N)cc5)c5ccc2[nH]5)C=C4)C=C3)cc1` .
inactive

Please indicate how the test categorized `N=C(N)NCCC[C@H](N)C(=O)Nc1ccc(-c2c3nc(c(-c4ccccc4)c4ccc([nH]4)c(-c4ccccc4)c4nc(c(-c5ccccc5)c5ccc2[nH]5)C=C4)C=C3)cc1` .
inactive

Please indicate how the test categorized `Nc1ccc(-c2c3nc(c(-c4ccccc4)c4ccc([nH]4)c(-c4ccc(N)cc4)c4nc(c(-c5ccccc5)c5ccc2[nH]5)C=C4)C=C3)cc1` .
inactive

Please indicate how the test categorized `Nc1ccc(-c2c3nc(c(-c4ccccc4)c4ccc([nH]4)c(-c4ccccc4)c4nc(c(-c5ccccc5)c5ccc2[nH]5)C=C4)C=C3)cc1` .
inactive
